System: YANK2
Construct: gene STK32B
Conditions: concentration: 1 μM, replicates: in singlicate; n = 1;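 further: KINOMEscan kinase panel screen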
Recorded %Inh by entry
Attribute measured: %Inh (%)

[
  {
    "Molecule": "Nc1ncc(-c2ccc3nccc(-c4ccncc4)c3c2)cc1S(=O)(=O)N1CCCCC1",
    "Recorded measurement": 0
  },
  {
    "Molecule": "COc1cccc2c(-c3ccncc3)c(-c3ccc(F)cc3)nn12",
    "Recorded measurement": 72
  },
  {
    "Molecule": "CN(C)CCNS(=O)(=O)c1ccc(-c2ccnc3[nH]ccc23)cc1",
    "Recorded measurement": 0
  },
  {
    "Molecule": "Cc1cc(-c2c(-c3ccc(F)cc3)ncn2CCCN2CCOCC2)nc(N)n1",
    "Recorded measurement": 13
  },
  {
    "Molecule": "O=C(O)C(F)(F)F.O=c1[nH]ccc2nc(N[C@@H]3CCNC3)nc(Nc3cc(Cl)cc(Cl)c3)c12",
    "Recorded measurement": 0
  },
  {
    "Molecule": "Cc1ccc(O)cc1Nc1ccnc2ccc(C(C)(C)C)cc12",
    "Recorded measurement": 4
  },
  {
    "Molecule": "O=C(Nc1c(F)cccc1F)c1cc(C(=O)c2ccccc2F)c[nH]1",
    "Recorded measurement": 0
  },
  {
    "Molecule": "Cc1ccc(-c2ccc3occ(-c4ccc(S(C)=O)cc4)c3c2)nn1 (stereo not drawn)",
    "Recorded measurement": 1
  },
  {
    "Molecule": "Cn1cc(-c2ccc3c(c2)CCN3C(=O)Cc2cc(F)cc(C(F)(F)F)c2)c2c(N)ncnc21",
    "Recorded measurement": 0
  },
  {
    "Molecule": "Cc1cc(-c2ccnc(Nc3cccc(C#N)c3)n2)cc(C)c1O",
    "Recorded measurement": 0
  },
  {
    "Molecule": "c1ccc(Oc2ccc(Nc3ccnc4cc(-c5ccc(CN6CCCCC6)o5)ccc34)cc2)nc1",
    "Recorded measurement": 0
  },
  {
    "Molecule": "Cc1cccc(Nc2nc(NCCN)ncc2C(N)=O)c1",
    "Recorded measurement": 0
  },
  {
    "Molecule": "COc1ccc(C2=C(Nc3cccc(O)c3)C(=O)NC2=O)cc1",
    "Recorded measurement": 0
  },
  {
    "Molecule": "O=C(Nc1n[nH]c2nc(-c3ccccc3O)ccc12)C1CC1",
    "Recorded measurement": 0
  },
  {
    "Molecule": "CS(=O)(=O)c1cccc(CNc2nc(Nc3ccc4c(c3)CCC(=O)N4)ncc2C(F)(F)F)c1",
    "Recorded measurement": 0
  },
  {
    "Molecule": "Cc1ccccc1CC(=O)N1CCc2cc(-c3cn(C)c4ncnc(N)c34)ccc21",
    "Recorded measurement": 0
  },
  {
    "Molecule": "COc1cccc(CC(=O)N2CCc3cc(-c4cn(C)c5ncnc(N)c45)ccc32)c1",
    "Recorded measurement": 0
  },
  {
    "Molecule": "Cc1ccc(NC(=O)c2ccc(Cl)c(Cl)c2)cc1-c1ccc(C(=O)Nc2ccncc2)cc1",
    "Recorded measurement": 7
  }
]

* * *

Test system: S6K1
Conditions: concentration: 1 μM, replicates: in singlicate; n = 1
Recorded %Inh by entry

[
  {
    "Compound": "Cl.N#CCc1ccc(Nc2nccc(Nc3ccc(Oc4ccccc4)cc3)n2)cc1 [GW639905]",
    "Measurement unit": "%",
    "%Inh": 0
  },
  {
    "Compound": "N#CC1(c2cccc(C(=O)Nc3cccc(Oc4ccc5nc(NC(=O)C6CC6)sc5n4)c3)c2)CC1",
    "Measurement unit": "%",
    "%Inh": 0
  },
  {
    "Compound": "COc1cccc(C2=C(Nc3cccc(O)c3)C(=O)NC2=O)c1 [SB-390771]",
    "Measurement unit": "%",
    "%Inh": 11
  },
  {
    "Compound": "CCNc1nccc(-c2c(-c3ccc(F)cc3)ncn2C2CCN(C)CC2)n1",
    "Measurement unit": "%",
    "%Inh": 0
  },
  {
    "Compound": "CN(c1ccc(NC(=O)N2CCN(CCCN3CCOCC3)CC2)cc1)c1ccnc(Nc2ccc(CS(C)(=O)=O)cc2)n1.Cl [GW830899]",
    "Measurement unit": "%",
    "%Inh": 0
  },
  {
    "Compound": "CCOc1nccc(-c2c(-c3ccc(F)cc3)ncn2C2CCNCC2)n1 [SB-249175]",
    "Measurement unit": "%",
    "%Inh": 16
  },
  {
    "Compound": "CN(C)CCNS(=O)(=O)c1ccc(-c2ccnc3[nH]ccc23)cc1 [GSK977620]",
    "Measurement unit": "%",
    "%Inh": 32
  }
]

* * *

Tested on: PRP4
Conditions: concentration: 1 μM, replicates: in singlicate; n = 1
Assign yes to entries whose %Inh meets or exceeds 20%; assign no to the rest.

[
  {
    "Compound": "COc1cccc(CC(=O)N2CCc3cc(-c4cn(C)c5ncnc(N)c45)ccc32)c1 [GSK2608899]",
    "Experimental target": "PRP4",
    "Group": "no"
  },
  {
    "Compound": "CC(C)c1nc(-c2ccc(F)c(NS(=O)(=O)c3c(F)cccc3F)c2)c(-c2ccnc(Nc3ccc(N4CCOCC4)nc3)n2)s1 [GSK1804250]",
    "Experimental target": "PRP4",
    "Group": "no"
  },
  {
    "Compound": "CCNc1nccc(-c2c(-c3ccc(F)cc3)ncn2C2CCN(C)CC2)n1",
    "Experimental target": "PRP4",
    "Group": "no"
  },
  {
    "Compound": "Cc1ccc(O)cc1Nc1ccnc2cc(-c3ccc(CN4CCCCC4)o3)ccc12 [GW557777]",
    "Experimental target": "PRP4",
    "Group": "no"
  },
  {
    "Compound": "COc1cc(Nc2ccnc3cc(-c4ccncc4)ccc23)cc(OC)c1OC.Cl [GW494610]",
    "Experimental target": "PRP4",
    "Group": "yes"
  },
  {
    "Compound": "CNc1nccc(-c2ccc3c(N)n[nH]c3c2)n1 [GSK2206003]",
    "Experimental target": "PRP4",
    "Group": "yes"
  },
  {
    "Compound": "Nc1cccc(-c2ccc3c(N)n[nH]c3c2)c1 [GSK2193613]",
    "Experimental target": "PRP4",
    "Group": "no"
  },
  {
    "Compound": "CN(C)CCNS(=O)(=O)c1ccc(-c2ccnc3[nH]ccc23)cc1 [GSK977620]",
    "Experimental target": "PRP4",
    "Group": "no"
  },
  {
    "Compound": "CC(C)(C)c1ccc(C(=O)Nc2cn3cc(-n4ccnc4)ccc3n2)cc1",
    "Experimental target": "PRP4",
    "Group": "yes"
  }
]

* * *

Tested on: ACVR1
Conditions: concentration: 1 μM, replicates: in singlicate; n = 1
Decide using %Inh alone. Strictly below 10%: YES. Equal to or above 10%: NO.

[
  {
    "Smiles structure": "COc1ccc(C)c(Nc2ccnc(Nc3ccc(-c4cnc[nH]4)cc3)n2)c1.Cl",
    "Experimental target": "ACVR1",
    "Group": "NO"
  },
  {
    "Smiles structure": "O=C(Nc1n[nH]c2cc(-c3cccs3)ccc12)C1CC1",
    "Experimental target": "ACVR1",
    "Group": "YES"
  },
  {
    "Smiles structure": "COc1cccc(CC(=O)N2CCc3cc(-c4cn(C)c5ncnc(N)c45)ccc32)c1",
    "Experimental target": "ACVR1",
    "Group": "YES"
  },
  {
    "Smiles structure": "Cc1nn2c(=O)cc(N3CCO[C@H](C)C3)nc2n1Cc1cccc(Cl)c1Cl",
    "Experimental target": "ACVR1",
    "Group": "YES"
  },
  {
    "Smiles structure": "CN1CCN(Cc2ccc(NC(=O)Nc3ccc(N(C)c4ccnc(Nc5ccc(CS(C)(=O)=O)cc5)n4)cc3)cc2)CC1.Cl",
    "Experimental target": "ACVR1",
    "Group": "NO"
  },
  {
    "Smiles structure": "Cl.O=C(Nc1ccc(Oc2ccc3[nH]c(NC(=O)c4ccco4)nc3c2)cc1)Nc1cc(C(F)(F)F)ccc1F",
    "Experimental target": "ACVR1",
    "Group": "YES"
  },
  {
    "Smiles structure": "Cn1cc(-c2cnc(N)c3c(-c4ccc5c(c4)CCN5C(=O)Cc4ccccc4)csc23)cn1",
    "Experimental target": "ACVR1",
    "Group": "YES"
  },
  {
    "Smiles structure": "CCOc1nccc(-c2c(-c3ccc(F)cc3)ncn2C2CCNCC2)n1",
    "Experimental target": "ACVR1",
    "Group": "NO"
  }
]
